- System: SK-OV-3 ovarian
- assayInfo: NCI-60 one-dose screen, 48 h
- studyConditions: 10 µM unless noted
- Protocol: Growth inhibition of the SK-OV-3 human tumor cell line is measured as a screen for anti-cancer activity. Cells are grown in 96 well plates and exposed to the test compound for 48 hours. Compounds are tested at a single concentration, which is 10^-5 M for most compounds. The reported endpoint is percent growth (GI% or GIPRCNT), where numbers from 0 - 100% represent growth inhibition, and numbers from -100% - 0 represent cell death. For example, a value of 40 represents 60% growth inhibition. […]
The panel holds about 83,000 compounds, 20% with a hit somewhere; the sample as a whole holds those more often. Active and inactive are the calls of the source. How the source made its calls: active means growth percent below 10; inactive means the rest.
A correct response names exactly one class from active, inactive

# compound, measuredOn, answerLabel
measured = [
    ("Cc1cccc2c1NC(=O)C2(c1ccc(O)cc1)c1ccc(O)cc1", "SK-OV-3 ovarian", "inactive"),
]

# fetch the recorded call for C=C1C(=O)O[C@H]2[C@H]1CC/C(COC(=O)NCc1ccc(Cn3c(=O)sn(CCI)c3=O)cc1)=C\CC[C@@]1(C)O[C@@H]21 here
inactive
